system-name: pyruvate kinase (PK-1 from rabbit muscle) (Oryctolagus cuniculus)
Construct: purified PK-1 from rabbit muscle
Sequence (P11974 2-531): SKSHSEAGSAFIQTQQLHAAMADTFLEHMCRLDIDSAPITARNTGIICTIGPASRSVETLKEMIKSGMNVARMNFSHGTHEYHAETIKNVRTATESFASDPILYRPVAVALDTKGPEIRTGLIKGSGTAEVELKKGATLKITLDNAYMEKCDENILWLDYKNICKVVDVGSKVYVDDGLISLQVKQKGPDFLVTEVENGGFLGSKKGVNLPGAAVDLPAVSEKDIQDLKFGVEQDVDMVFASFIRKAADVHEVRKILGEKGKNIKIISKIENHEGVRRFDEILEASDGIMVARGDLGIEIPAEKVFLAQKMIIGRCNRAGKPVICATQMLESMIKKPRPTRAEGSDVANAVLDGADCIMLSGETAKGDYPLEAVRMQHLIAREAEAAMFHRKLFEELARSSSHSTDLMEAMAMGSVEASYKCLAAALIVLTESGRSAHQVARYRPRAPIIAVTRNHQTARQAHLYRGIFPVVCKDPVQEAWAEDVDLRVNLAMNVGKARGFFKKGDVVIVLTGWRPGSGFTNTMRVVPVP
experiment-description: enzyme kinetics, ATP production by luminescence (CellTiter-Glo), competitive model fit

# compound, Ki, mM
data = [
    ("CCOC(=O)C(C)=O [ethyl pyruvate]", 3),
]

Origin of measurements: paper PMC4560413
